# Tested on: MDA-MB-231 cells
# experimental-details: cells
# measurement-context: Homo sapiens, MDA-MB-231, 72 h, read-out: TGI
Use IC (TGI) to assign classes; range list: low band = under 1 nM, middle band = from 1 nM up to 20 nM, high band = 20 nM and over

INSERT INTO measurements (sample_smiles, class_label) VALUES
  ('COc1ccc2[nH]c3c(c2c1)C[C@H](CN)N[C@]31CS[C@@H]2c3c(OC(C)=O)c(C)c4c(c3[C@H](COC1=O)N1[C@@H]2[C@H]2c3c(cc(C)c(OC)c3O)C[C@@H]([C@@H]1C#N)N2C)OCO4', 'middle band');

Kindly state the category for this compound: COc1ccc2[nH]c3c(c2c1)CCN[C@]31CS[C@@H]2c3c(OC(C)=O)c(C)c4c(c3[C@H](COC1=O)N1[C@@H]2[C@H]2c3c(cc(C)c(OC)c3O)C[C@@H]([C@@H]1O)N2C)OCO4
middle band

Kindly state the category for this compound: COc1c(C)cc2c(c1O)[C@@H]1[C@@H]3[C@@H]4SC[C@]5(N[C@H](C(=O)O)Cc6c5[nH]c5ccccc65)C(=O)OC[C@@H](c5c6c(c(C)c(OC(C)=O)c54)OCO6)N3[C@@H](C#N)[C@H](C2)N1C
high band

Kindly state the category for this compound: COc1ccc2[nH]c3c(c2c1)C[C@@H](C(=O)O)N[C@]31CS[C@@H]2c3c(OC(C)=O)c(C)c4c(c3[C@H](COC1=O)N1[C@@H]2[C@H]2c3c(cc(C)c(OC)c3O)C[C@@H]([C@@H]1O)N2C)OCO4
high band

Kindly state the category for this compound: COc1c(C)cc2c(c1O)[C@@H]1[C@@H]3[C@@H]4SC[C@]5(N[C@H](COC(C)=O)Cc6c5[nH]c5ccccc65)C(=O)OC[C@@H](c5c6c(c(C)c(OC(C)=O)c54)OCO6)N3[C@@H](C#N)[C@H](C2)N1C
middle band

Kindly state the category for this compound: COc1ccc2[nH]c3c(c2c1)C[C@H](CN)N[C@]31CS[C@@H]2c3c(OC(C)=O)c(C)c4c(c3[C@H](COC1=O)N1[C@@H]2[C@H]2c3c(cc(C)c(OC)c3O)C[C@@H]([C@@H]1O)N2C)OCO4
low band

Kindly state the category for this compound: COc1c(C)cc2c(c1O)[C@@H]1[C@@H]3[C@@H]4SC[C@]5(N[C@@H](CO)Cc6c5oc5ccccc65)C(=O)OC[C@@H](c5c6c(c(C)c(OC(C)=O)c54)OCO6)N3[C@@H](C#N)[C@H](C2)N1C
low band

Kindly state the category for this compound: C=CCOC(=O)NC[C@H]1Cc2c([nH]c3ccc(OC)cc23)[C@@]2(CS[C@@H]3c4c(OC(C)=O)c(C)c5c(c4[C@H](COC2=O)N2[C@@H]3[C@H]3c4c(cc(C)c(OC)c4O)C[C@@H]([C@@H]2C#N)N3C)OCO5)N1
middle band

* * *

# System: MDA-MB-231 cells
# experimental-details: cells
# measurement-context: Homo sapiens, MDA-MB-231, 72 h, read-out: TGI
Known IC (TGI) of a selection of molecules
State the answer as a number, implicitly in nM.

INSERT INTO results (molecule, target, measured) VALUES
  ('COc1ccc2[nH]c3c(c2c1)C[C@@H](C(=O)O)N[C@]31CS[C@@H]2c3c(OC(C)=O)c(C)c4c(c3[C@H](COC1=O)N1[C@@H]2[C@H]2c3c(cc(C)c(OC)c3O)C[C@@H]([C@@H]1C#N)N2C)OCO4 [Compound 28-S]', 'MDA-MB-231 cells', 251);

Below: the item to evaluate.
Form: molecule = COc1ccc2oc3c(c2c1)CCN[C@]31CS[C@@H]2c3c(OC(C)=O)c(C)c4c(c3[C@H](COC1=O)N1[C@@H]2[C@H]2c3c(cc(C)c(OC)c3O)C[C@@H]([C@@H]1C#N)N2C)OCO4 [Compound 34] ; IC (TGI) = 76.7

* * *

# experimental-details: MTMD (Maximum Tolerated Multiple Dose) determination, iv weekly x3
# Assay type: in vivo
# measurement-context: mice; iv/Q7dx3
# Text: Female CD-1 or Athymic Nude-Fox1 nu/nu mice (Envigo) were utilized for all experiments. […] Animals were acclimated for five days prior to being individually tattoo-identified. Animal protocols were reviewed and approved according to the regional Institutional Animal Care and Use Committees. […]
measured-metric: MTMD (mg/kg)
State the answer as a number, implicitly in mg/kg.

INSERT INTO measurements (sample_smiles, measured_metric, measured) VALUES
  ('COc1ccc2[nH]c3c(c2c1)C[C@@H](CO)N[C@]31CS[C@@H]2c3c(OC(C)=O)c(C)c4c(c3[C@H](COC1=O)N1[C@@H]2[C@H]2c3c(cc(C)c(OC)c3O)C[C@@H]([C@@H]1O)N2C)OCO4', 'MTMD', 0.75);

Form: compound = COc1c(C)cc2c(c1O)[C@@H]1[C@@H]3[C@@H]4SC[C@]5(NCCc6c5oc5ccccc65)C(=O)OC[C@@H](c5c6c(c(C)c(OC(C)=O)c54)OCO6)N3[C@@H](O)[C@H](C2)N1C ; MTMD = 0.5

* * *

# Tested on: PSN1 cells
# experimental-details: cells
# measurement-context: Homo sapiens, PSN1, 72 h, read-out: TGI
measured-metric: IC (TGI) (nM)
State the answer as a number, implicitly in nM.

For orientation, consider the following solved cases.
INSERT INTO measurements (sample_smiles, measured_metric, scale_unit, measured) VALUES
  ('COc1c(C)cc2c(c1O)[C@@H]1[C@@H]3[C@@H]4SC[C@]5(NCCc6c5oc5ccccc65)C(=O)OC[C@@H](c5c6c(c(C)c(OC(C)=O)c54)OCO6)N3[C@@H](O)[C@H](C2)N1C', 'IC (TGI)', 'nM', 8.34),
  ('COc1ccc2[nH]c3c(c2c1)C[C@H](C(=O)O)N[C@]31CS[C@@H]2c3c(OC(C)=O)c(C)c4c(c3[C@H](COC1=O)N1[C@@H]2[C@H]2c3c(cc(C)c(OC)c3O)C[C@@H]([C@@H]1O)N2C)OCO4', 'IC (TGI)', 'nM', 31.4);

Form: molecule = COc1ccc2[nH]c3c(c2c1)C[C@@H](C(=O)O)N[C@]31CS[C@@H]2c3c(OC(C)=O)c(C)c4c(c3[C@H](COC1=O)N1[C@@H]2[C@H]2c3c(cc(C)c(OC)c3O)C[C@@H]([C@@H]1C#N)N2C)OCO4 ; IC (TGI) = 394

* * *

# System: A549 cells
# experimental-details: cells
# measurement-context: read-out: LC50; A549; 72 hours treatment; SRB
measured-metric: CC50

INSERT INTO results (compound, measured) VALUES
  ('COc1ccc2[nH]c3c(c2c1)C[C@@H](CO)N[C@]31CS[C@@H]2c3c(OC(C)=O)c(C)c4c(c3[C@H](COC1=O)N1[C@@H]2[C@H]2c3c(cc(C)c(OC)c3O)C[C@@H]([C@@H]1O)N2C)OCO4', '> 123 nM'),
  ('COc1c(C)cc2c(c1O)[C@@H]1[C@@H]3[C@@H]4SC[C@]5(N[C@@H](CN)Cc6c5oc5ccccc65)C(=O)OC[C@@H](c5c6c(c(C)c(OC(C)=O)c54)OCO6)N3[C@@H](C#N)[C@H](C2)N1C', '> 126 nM'),
  ('COc1ccc2[nH]c3c(c2c1)C[C@H](CO)N[C@]31CS[C@@H]2c3c(OC(C)=O)c(C)c4c(c3[C@H](COC1=O)N1[C@@H]2[C@H]2c3c(cc(C)c(OC)c3O)C[C@@H]([C@@H]1O)N2C)OCO4', '> 123 nM');

Below: the item to evaluate.
For the compound COc1ccc2[nH]c3c(c2c1)CCNC31CSC2c3c(OC(C)=O)c(C)c4c(c3C(COC1=O)N1C(C#N)C3Cc5cc(C)c(OC)c(O)c5C(C21)N3C)OCO4 (stereo not shown) , the measured CC50 on A549 cells was 4.41 nM

* * *

# System: A549 cells
# experimental-details: cells
# measurement-context: Homo sapiens, A549, 72 h, read-out: TGI
Kind request: treat 4 nM as inclusive, so IC (TGI) at 4 nM or higher is yes (1), anything lower is no (0).

INSERT INTO assay_data (sample_smiles, target, class_label) VALUES
  ('COc1ccc2[nH]c3c(c2c1)C[C@@H](CO)N[C@]31CS[C@@H]2c3c(OC(C)=O)c(C)c4c(c3[C@H](COC1=O)N1[C@@H]2[C@H]2c3c(cc(C)c(OC)c3O)C[C@@H]([C@@H]1C#N)N2C)OCO4', 'A549 cells', 'no (0)'),
  ('COc1ccc2[nH]c3c(c2c1)C[C@H](CN)N[C@]31CS[C@@H]2c3c(OC(C)=O)c(C)c4c(c3[C@H](COC1=O)N1[C@@H]2[C@H]2c3c(cc(C)c(OC)c3O)C[C@@H]([C@@H]1C#N)N2C)OCO4', 'A549 cells', 'no (0)'),
  ('COc1ccc2[nH]c3c(c2c1)C[C@H](C(=O)O)N[C@]31CS[C@@H]2c3c(OC(C)=O)c(C)c4c(c3[C@H](COC1=O)N1[C@@H]2[C@H]2c3c(cc(C)c(OC)c3O)C[C@@H]([C@@H]1O)N2C)OCO4', 'A549 cells', 'yes (1)');

Exam item: decide whether the reported IC (TGI) for COc1c(C)cc2c(c1O)[C@@H]1[C@@H]3[C@@H]4SC[C@]5(NCCc6c5oc5ccccc65)C(=O)OC[C@@H](c5c6c(c(C)c(OC(C)=O)c54)OCO6)N3[C@@H](O)[C@H](C2)N1C is at least 4 nM.
yes (1)

Exam item: decide whether the reported IC (TGI) for COc1c(C)cc2c(c1O)[C@@H]1[C@@H]3[C@@H]4SC[C@]5(N[C@H](COC(C)=O)Cc6c5[nH]c5ccccc65)C(=O)OC[C@@H](c5c6c(c(C)c(OC(C)=O)c54)OCO6)N3[C@@H](C#N)[C@H](C2)N1C is at least 4 nM.
no (0)

Exam item: decide whether the reported IC (TGI) for COc1c(C)cc2c(c1O)[C@@H]1[C@@H]3[C@@H]4SC[C@]5(N[C@H](C)Cc6c5[nH]c5ccccc65)C(=O)OC[C@@H](c5c6c(c(C)c(OC(C)=O)c54)OCO6)N3[C@@H](C#N)[C@H](C2)N1C is at least 4 nM.
yes (1)

Exam item: decide whether the reported IC (TGI) for C=CCOC(=O)NC[C@@H]1Cc2c([nH]c3ccc(OC)cc23)[C@@]2(CS[C@@H]3c4c(OC(C)=O)c(C)c5c(c4[C@H](COC2=O)N2[C@@H]3[C@H]3c4c(cc(C)c(OC)c4O)C[C@@H]([C@@H]2C#N)N3C)OCO5)N1 is at least 4 nM.
yes (1)

Exam item: decide whether the reported IC (TGI) for COc1ccc2[nH]c3c(c2c1)C[C@H](C(=O)O)N[C@]31CS[C@@H]2c3c(OC(C)=O)c(C)c4c(c3[C@H](COC1=O)N1[C@@H]2[C@H]2c3c(cc(C)c(OC)c3O)C[C@@H]([C@@H]1C#N)N2C)OCO4 is at least 4 nM.
yes (1)
